Answer each item with its documented viability, T/C.
- Tested on: 945468-187-T-J2-PDC spheroids viability
- Protocol Text: Anticancer human tumor 945468-187-T-J2-PDC patient-derived rectal carcinoma cell line growth inhibition [PI3K]
- Test Conditions: second compound 0.316 µM; first compound 0.00316 µM; hits give low values; spheroids with HUVEC and MSC
Give just the numeric value; % need not be written.

stdin: Which value of viability, T/C has been reported for CCN1CCN(Cc2ccc(Nc3ncc(F)c(-c4cc(F)c5nc(C)n(C(C)C)c5c4)n3)nc2)CC1 + Cc1nc(NC(=O)N2CCCC2C(N)=O)sc1-c1ccnc(C(C)(C)C(F)(F)F)c1 in the records?
stdout: 103

stdin: Further, for CC(C)n1nc(-c2ccc3oc(N)nc3c2)c2c(N)ncnc21 + Cc1nc(NC(=O)N2CCCC2C(N)=O)sc1-c1ccnc(C(C)(C)C(F)(F)F)c1 ?
stdout: 80.4

stdin: Further, for CC(C)n1nc(-c2ccc3oc(N)nc3c2)c2c(N)ncnc21 + COc1c(OCCCN2CCOCC2)ccc2c3n(c(=NC(=O)c4cnc(N)nc4)nc12)CCN3 ?
stdout: 26.5

stdin: Further, for Cn1ncnc1[C@H]1c2n[nH]c(=O)c3cc(F)cc(c23)N[C@@H]1c1ccc(F)cc1 + Cc1nc(NC(=O)N2CCCC2C(N)=O)sc1-c1ccnc(C(C)(C)C(F)(F)F)c1 ?
stdout: 89.4

* * *

- Test system: 945468-187-T-J2-PDC spheroids viability
- Protocol Text: Anticancer human tumor 945468-187-T-J2-PDC cell line growth inhibition [PI3K];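 note: spheroids exposed to compounds for seven days before reading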
- Test Conditions: second compound 0.0316 µM; first compound 0.0316 µM; hits give low values; spheroids with HUVEC and MSC
Quantity: viability, T/C (%)
Give just the numeric value; % need not be written.

stdin: Which value of viability, T/C has been reported for CC(C)NCC(C(=O)N1CCN(c2ncnc3c2C(C)CC3O)CC1)c1ccc(Cl)cc1 (configuration not stated) + COc1c(OCCCN2CCOCC2)ccc2c3n(c(=NC(=O)c4cnc(N)nc4)nc12)CCN3 in the records?
stdout: 83.6

stdin: Further, for Cn1ncnc1[C@H]1c2n[nH]c(=O)c3cc(F)cc(c23)N[C@@H]1c1ccc(F)cc1 + Cc1nc(NC(=O)N2CCCC2C(N)=O)sc1-c1ccnc(C(C)(C)C(F)(F)F)c1 ?
stdout: 91.6

stdin: Further, for CC1(C)CCC(Nc2ncc(C(F)(F)F)c(-c3c[nH]c4c(P(C)(C)=O)c(C#N)ccc34)n2)CN1 (configuration not stated) + Cc1nc(NC(=O)N2CCCC2C(N)=O)sc1-c1ccnc(C(C)(C)C(F)(F)F)c1 ?
stdout: 95.8

stdin: Further, for CC(C)NCC(C(=O)N1CCN(c2ncnc3c2C(C)CC3O)CC1)c1ccc(Cl)cc1 (configuration not stated) + Cc1nc(NC(=O)N2CCCC2C(N)=O)sc1-c1ccnc(C(C)(C)C(F)(F)F)c1 ?
stdout: 110

stdin: Further, for CCCS(=O)(=O)Nc1ccc(F)c(C(=O)c2c[nH]c3ncc(-c4ccc(Cl)cc4)cc23)c1F + Cc1nc(NC(=O)N2CCCC2C(N)=O)sc1-c1ccnc(C(C)(C)C(F)(F)F)c1 ?
stdout: 84.6

stdin: Further, for CC(C)n1nc(-c2ccc3oc(N)nc3c2)c2c(N)ncnc21 + COc1c(OCCCN2CCOCC2)ccc2c3n(c(=NC(=O)c4cnc(N)nc4)nc12)CCN3 ?
stdout: 79.1

stdin: Further, for Cn1nccc1Nc1nccc(-c2ccn(C(CO)c3ccc(Cl)c(F)c3)c(=O)c2)n1 (configuration not stated) + COc1c(OCCCN2CCOCC2)ccc2c3n(c(=NC(=O)c4cnc(N)nc4)nc12)CCN3 ?
stdout: 91.9

The origin of these recorded values is PubChem BioAssay AID1963972.
